test system: human gastric cancer cell line AGS; assay: MTT cell proliferation assay, gastric cancer cell line AGS; type: cell-based; conditions: Gastric cancer, treatment for 72 hours, read-out: Cancer cell growth inhibition (IC50)
Metric name: pIC50
Note: pIC50 values are expressed as the negative base-10 logarithm of concentration in M.

-- ask Name the recorded pIC50 for O1[As]2O[As]3O[As]1O[As](O2)O3 [Example 1, tetraarsenic hexoxide] .
-- reply 6.05

----------
system: human colorectal cancer cell line HCT116; assay: MTT cell proliferation assay, colorectal cancer cell line HCT116; type: cell-based; conditions: Colorectal cancer, HCT116, treatment for 72 hours; read-out: Cancer cell growth inhibition (IC50)
Metric name: IC50
Put your answer as a value accompanied by its unit after it.

-- ask What does the record list as IC50 for O1[As]2O[As]3O[As]1O[As](O2)O3 [Example 1, tetraarsenic hexoxide] ?
-- reply 5.07 µM

----------
tested on: human endometrial cancer cell line HEC-1A; test: MTT cell proliferation assay, endometrial cancer cell line HEC-1A; type: cell-based; details: treatment for 72 hours, read-out: Cancer cell growth inhibition (IC50)
Metric name: IC50
Number first, unit second: that is the form wanted.

-- ask Query the reported IC50 for human endometrial cancer cell line HEC-1A; item: O1[As]2O[As]3O[As]1O[As](O2)O3 [Example 1, tetraarsenic hexoxide]
-- reply 2.47 µM
